Source listed as PubChem BioAssay (NCI).

# Tested on: CCRF-CEM leukemia
# Protocol Details: NCI tumour cell line growth inhibition, 48 h
Property: TGI

Illustrative cases are given below, each with its answer.
COc1ccc2c(c1)C=C1CSCC3=Cc4cc(OC)ccc4OC13O2	> 85.3 µM
Cc1cc(C)nc(NS(=O)(=O)c2ccc(NC(=O)c3cccc4c(N)c5ccccc5nc34)cc2)n1	> 100 µM
CC(C)OP(=O)(OC(C)C)C(Nc1cccc(C(F)(F)F)c1)c1ccccc1 (centres undefined)	> 100 µM

response.value for COc1cc(NC(=O)c2cc(O)c(C/C=C(\C)CCC=C(C)C)c(O)c2)cc2c1O[C@]1(C)CC[C@@H](O)C(C)(C)[C@H]1C2 (field: TGI) = 7.21 µM

response.value for CCOC(=O)/C=C1\Oc2ccccc2C1(C)O (centres undefined) (field: TGI) = > 100 µM

response.value for CC(=O)n1c(-c2ccc(Cl)c(Cl)c2)cn(-c2ccc(Cl)cc2)c1=O (field: TGI) = 38 µM

response.value for COC1C(O)C(C)OC(O[C@@H]2C[C@H]3CC[C@@H]4[C@H](CC[C@]5(C)[C@@H](C6=CC(=O)OC6)CC[C@]45O)[C@@]3(C)[C@H](O)C2)C1O (some centres undefined) (field: TGI) = > 100 µM

response.value for Cc1cn(Cc2ccccc2CCl)c(=O)n(Cc2ccccc2CCl)c1=O (field: TGI) = 5.5 µM

response.value for COC(=O)CNCC1OC2OC(C)(C)OC2C1N=[N+]=[N-] (centres undefined) (field: TGI) = > 100 µM

----------
# Tested on: MDA-MB-435
# Protocol Details: NCI tumour cell line growth inhibition, 48 h
Property: TGI (µM)
Lab book: enter the figure in µM, no units written.

Cc1cc(-c2ccc(C(=O)C(c3ccccc3)(c3ccccc3)c3ccccc3)[nH]2)on1	67.7

response.value for C=C1C(=O)O[C@H]2[C@H]1CC/C(CNC(=O)/C=C/c1ccc(Cl)cc1Cl)=C\CC[C@@]1(C)O[C@@H]21 (field: TGI) = 1.74

response.value for Cc1cc(Cl)ccc1Nc1nc(C(F)(F)F)ccc1C(=O)Nc1cccc(C(F)(F)F)c1 (field: TGI) = 16.1

----------
Form field: log10(TGI) (one value per entry).
# Test system: NCI-H226 lung
# Protocol Details: NCI tumour cell line growth inhibition, 48 h
Recorded TGI (log10, µM)

Illustrative cases are given below, each with its answer.
Cc1[nH]c2ccccc2c1C1=CC(=O)N(c2ccccc2)C1=O	1.95
COc1cc(/C=C\c2ccc(Cl)cc2)cc(OC)c1OC	0.84
[O-][n+]1c2cc(CN3CCOCC3)c(CN3CCOCC3)cc2[n+]([O-])c2c(O)cccc21	1.49

response.value for COc1cc2c(cc1OCCCCCn1c3ccccc3c3ccccc31)N=C[C@@H]1CCCN1C2=O (field: log10(TGI)) = 0.93

response.value for CC1CC(=O)c2c(ccc3c2C(=O)c2cccc(O)c2C3=O)C1 (stereo unspecified) (field: log10(TGI)) = 1.54

----------
Form field: TGI (one value per entry).
# System: OVCAR-3 ovarian
# Protocol Details: NCI tumour cell line growth inhibition, 48 h
*1 amine or outer side, *2 acyl side, *3 side chain or, on linkers, in order; H or OH if unused. Where a SMILES comes first, the peptide text is derived from it. [ ]: non-standard residue; d: D form. The star is where a group is joined. X31 = CC(=O)N(C)SCC(N[*:1])C(=O)[*:2]; Fmoc = O=C(OCC1c2ccccc2-c2ccccc21)*; For = O=C*

CCN1C(=O)CS/C1=N\NC(=O)CSc1nc2ccccc2c(=O)n1CC	> 100 µM
O=c1[nH]cnc2c1ncn2CCCCO	> 100 µM
CC(=O)N(C)SCC(NC(=O)C(Cc1ccccc1)NC(=O)OCC1c2ccccc2-c2ccccc21)C(=O)NC(Cc1ccccc1)C(=O)NC(Cc1cn(C=O)c2ccccc12)C(=O)NC(CCCCNC(=O)OCC1c2ccccc2-c2ccccc21)C(=O)NC(C(=O)NC(CSN(C)C(C)=O)C(=O)NC(C(N)=O)C(C)O)C(C)O (stereo not given) (Fmoc-F[X31]FW(For)K(Fmoc)T[X31]T-NH2; configuration not given here)	> 100 µM
Cc1cn(Cc2ccccc2CCl)c(=O)n(Cc2ccccc2CCl)c1=O	3.65 µM

Kindly review the next molecule as well.
response.value for COC(=O)CNCC1OC2OC(C)(C)OC2C1N=[N+]=[N-] (stereo not given) (field: TGI) = > 100 µM
